# target or test system: T1, human GIP receptor (human, UniProt P48546 22-466)
# T1 sequence (looked up): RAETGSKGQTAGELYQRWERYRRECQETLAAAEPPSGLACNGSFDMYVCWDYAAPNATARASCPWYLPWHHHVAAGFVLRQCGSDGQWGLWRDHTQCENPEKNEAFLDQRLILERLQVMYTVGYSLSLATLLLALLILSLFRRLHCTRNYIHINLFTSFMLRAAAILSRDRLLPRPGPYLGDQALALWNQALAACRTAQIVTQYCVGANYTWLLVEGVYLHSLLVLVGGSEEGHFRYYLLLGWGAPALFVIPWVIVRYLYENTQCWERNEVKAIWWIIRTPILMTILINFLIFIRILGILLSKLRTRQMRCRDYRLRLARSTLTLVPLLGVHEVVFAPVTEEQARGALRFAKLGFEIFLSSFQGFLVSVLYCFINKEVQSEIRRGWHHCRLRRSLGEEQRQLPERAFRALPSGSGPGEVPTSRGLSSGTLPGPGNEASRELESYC
# assay remarks: cell-based or functional assay
*1 amine or outer side, *2 acyl side, *3 side chain or, on linkers, in order; H or OH if unused. Where no end group is shown, it is not given here. Side-chain parts run from the residue outwards. [ ]: non-standard residue; d: D form. The star is where a group is joined. phenyl lactic acid = phenyl lactic acid at the N-terminus; C18 diacid = O=C(O)CCCCCCCCCCCCCCCCC(=O)*; C16 diacid = O=C(O)CCCCCCCCCCCCCCC(=O)*; γGlu = O=C(O)[C@H](CCC(=O)[*:2])N[*:1]; Glutaryl = O=C(CCCC(=O)[*:2])[*:1]; Nle = CCCC[C@H](N)C(=O)O; AEEA = NCCOCCOCC(=O)O
test readout: cAMP antagonism pIC50
Give only the figure.

Take a look at these entries with their results.
EGTFISDYSIAMDKIK(C16 diacid)QQDFVNWLLAQKGKKNDWKHN-OH [AT362]	7.8
EGTFISTYK([γGlu-C16 diacid])IALDKIHQQDFVEWLLAQKPSSGAPPPS-OH [AT647]	7.7

Ask | // lookup cAMP antagonism pIC50 for EGTFISDYSIAMDKIK(C18)QQDFVNWLLAQKPSSGAPPPS-OH [AT628]
Reply | 7.2

Ask | // lookup cAMP antagonism pIC50 for {phenyl lactic acid}-PGTFISDYSIAMDKIKQQDFVNWLLAQKPSSGAPPPSK(C16 diacid)-NH2 (not fully specified) [AT652]
Reply | 8

Ask | // lookup cAMP antagonism pIC50 for Glutaryl-GTFISDYSIA[Nle]DKIK([AEEA-AEEA-γGlu-C18 diacid])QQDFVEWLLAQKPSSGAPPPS-OH [AT702]
Reply | 8.5

Ask | // lookup cAMP antagonism pIC50 for EGTFISDYSIAMDKIK([AEEA-AEEA-γGlu-C18 diacid])QQDFVNWLLAQKGPSSGAPPPS [AT433]
Reply | 8.1

Ask | // lookup cAMP antagonism pIC50 for EGTFISDYSIAMDKIK([AEEA-AEEA-γGlu-C18 diacid])QQDFVNWLLAQKGPSSGAPPPS [AT589]
Reply | 8.2

Ask | // lookup cAMP antagonism pIC50 for [βGlu]GTFISDYSIA[Nle]DKIK(C16 diacid)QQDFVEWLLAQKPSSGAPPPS-OH [AT699]
Reply | 8.2

Ask | // lookup cAMP antagonism pIC50 for TFISDYK([γGlu-γGlu-C18])IAMDKIHQQDFVNWLLAQKGKKNDW-OH [AT561]
Reply | 8

Ask | // lookup cAMP antagonism pIC50 for [βGlu]GTFISDYSIA[Nle]DKIK([AEEA-AEEA-γGlu-C18 diacid])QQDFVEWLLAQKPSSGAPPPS-OH [AT701]
Reply | 7.9

Ask | // lookup cAMP antagonism pIC50 for [βGlu]GTFISDYSIAMDKIK(C16 diacid)QQDFVNWLLAQKPSSGAPPPS-OH [AT676]
Reply | 8.6
